# Tested on: OVCAR-3 ovarian
# measurementNotes: NCI-60 one-dose screen, 48 h (100 = growth as untreated, 0 = no growth, -100 = all killed)
# setupConditions: 10 µM unless noted
Compounds without any hit were thinned out: in the full panel of roughly 83,000, 20% have a hit.
Is growth at least 80%? Then 1 (yes). If not, 0 (no).

Worked examples, 6 compounds total:
compound	assaySystem	answerLabel
O=C(OCc1ccc2cccc(O)c2n1)N1CCN(C(=O)c2cc3cc(F)ccc3[nH]2)CC1	OVCAR-3 ovarian	0 (no)
CCS/C(Nc1ccccc1)=C(\C#N)C(=O)N/N=C/c1ccc(Cl)cc1Cl	OVCAR-3 ovarian	0 (no)
O=C(/C=C/c1ccc(Cl)cc1)c1cccc(Nc2nc(Nc3ccccc3)nc(Nc3ccccc3)n2)c1	OVCAR-3 ovarian	1 (yes)
NC(=O)CCC(C(=O)O)N1C(=O)c2ccc(O)cc2C1=O (stereo not given)	OVCAR-3 ovarian	1 (yes)
CC(C)(C)n1cc(-c2ccnc(NCCNS(=O)(=O)c3cccc4ccccc34)c2)c(-c2cccc(F)c2)n1	OVCAR-3 ovarian	0 (no)
CC(=O)[C@@H]1CCC=C2CC[C@]3(C)[C@@H](CC[C@@H]4[C@@]5(C)CCCNC(C)(C)[C@@H]5CC[C@]43C)[C@H]21	OVCAR-3 ovarian	0 (no)

**Query** Can COc1cc2c(c(OC)c1OC)CCC(c1cccc(C(=O)Nc3cccc(Br)c3)c1)O2 (stereo not given) be said to have growth at or above 80%?
**Result** 0 (no)

**Query** Can OB(O)c1cccc(-c2nc3ccc4[nH]ncc4c3c3c2CCCC3)c1 be said to have growth at or above 80%?
**Result** 0 (no)

**Query** Can O=C1Nc2ccc(Br)cc2/C1=N/c1n[nH]c(=S)s1 be said to have growth at or above 80%?
**Result** 1 (yes)

* * *

# System: SK-MEL-28 melanoma
# measurementNotes: NCI-60 one-dose screen, 48 h
# setupConditions: 10 µM unless noted
This is part of a sample that, as a whole, favours compounds with a hit. Of some 83,000 tested, about 20% had one in any assay. Active and inactive are the calls of the source. Rule for the calls: active = growth percent below 10; inactive = the rest.
Pick one and only one: 1 for active, -1 for inactive

**Query** Can you look up the reported call for C[C@]12CC[C@@H]3c4ccc(O)c([N+](=O)[O-])c4CC[C@H]3[C@@H]1CCC2=O for me?
**Result** -1

* * *

# Tested on: DU-145 prostate
# measurementNotes: NCI-60 one-dose screen, 48 h
# setupConditions: 10 µM unless noted
The panel holds about 83,000 compounds, 20% with a hit somewhere; the sample as a whole holds those more often. Activity calls are given as the source filed them. How the source made its calls: active means growth percent below 10; inactive means the rest.
Pick one and only one: active, inactive

compound	answerLabel
COc1ccc2cc(C(=O)c3coc4ccc(O)cc34)ccc2c1	inactive
C#Cc1cccc(Nc2ncnc3ccc(-c4cnc(N)nc4)cc23)c1	inactive
CCO/C=N/C1=C(C#N)C(c2ccc(OC)cc2)c2sc3c(F)cccc3c2O1 (stereo unspecified)	inactive

**Query** Can you look up the reported call for C#CCOc1cccc(Nc2ncnc3c(NC(=O)C=C)cccc23)c1 for me?
**Result** active

**Query** Can you look up the reported call for CCOc1ccc(NC(=O)CSc2oc(-c3ccccc3)nc2S(=O)(=O)c2ccc(F)cc2)cc1 for me?
**Result** inactive

**Query** Can you look up the reported call for CC(=O)OCc1nc(C#N)c(N(C)C)o1 for me?
**Result** inactive

**Query** Can you look up the reported call for COP(=O)(OC)C(C)(C)CC(=O)CC(C#N)(C#N)C(C#N)C#N for me?
**Result** inactive

**Query** Can you look up the reported call for CCn1c(=S)[nH]c2c(=O)n(C)c(=O)n(C)c21 for me?
**Result** inactive

**Query** Can you look up the reported call for COC(=O)CCC(=O)C(=O)OC for me?
**Result** inactive

**Query** Can you look up the reported call for O=C(O)CNC1=C(Cl)C(=O)c2ccccc2C1=O for me?
**Result** inactive

**Query** Can you look up the reported call for Cn1c(O)c(C=NCCN=Cc2c(O)n(C)c(=O)n(C)c2=O)c(=O)n(C)c1=O for me?
**Result** inactive

**Query** Can you look up the reported call for COc1cc(CNC(=O)CCCC/C=C/C(C)C)ccc1OCc1nnc(Nc2ccc([N+](=O)[O-])cc2)o1 for me?
**Result** inactive

**Query** Can you look up the reported call for O=C(CN1C(=O)CCC1=O)Nc1ncc(Cc2ccc(F)cc2)s1 for me?
**Result** inactive

**Query** Can you look up the reported call for CCCCCCNC(=O)Oc1ccc(/C(=C(/C)Cc2ccc(OC)cc2)c2ccc(OCCCN(C)C)cc2)cc1 for me?
**Result** inactive

**Query** Can you look up the reported call for COc1ccc(-c2cc(-c3ccc(Cl)cc3)c(C#N)c(=O)n2CCCCC(=O)Nc2ccccc2N)cc1 for me?
**Result** inactive

* * *

# Tested on: MALME-3M melanoma
# measurementNotes: NCI-60 one-dose screen, 48 h
# setupConditions: 10 µM unless noted
The panel holds about 83,000 compounds, 20% with a hit somewhere; the sample as a whole holds those more often. Activity calls are given as the source filed them. How the source made its calls: active means growth percent below 10; inactive means the rest.
Pick one and only one: active, inactive

Worked examples, 2 molecules total:
molecule	assaySystem	answerLabel
COc1ccc(C2=Nc3c/c(=C\c4c(O)[nH]c5ccc(Cl)cc45)ccc3=N2)cc1	MALME-3M melanoma	inactive
CC/C(=C(/c1ccc(Cl)cc1)c1ccc(OCCN2CCCC2)cc1)c1ccc(OC)cc1	MALME-3M melanoma	inactive

**Query** Can you look up the reported call for O=C(Cn1cc(CN2CCCCCC2)nn1)Nc1ccc2c(ccn2Cc2ccccc2)c1 for me?
**Result** inactive

**Query** Can you look up the reported call for Cc1ccc(-c2nc(/C=C3/C(=O)Nc4ccccc43)c3ccccn23)cc1 for me?
**Result** inactive

**Query** Can you look up the reported call for COc1cc(CNS(=O)(=O)c2ccc(C)cc2)ccc1OCc1cn(-c2ccc(F)cc2)nn1 for me?
**Result** inactive

**Query** Can you look up the reported call for O=C1CNC(c2ccccc2)C(c2ccccc2)N1 (configuration not stated) for me?
**Result** inactive

**Query** Can you look up the reported call for OCc1cccc(-c2ccc3ncc(-c4nc(NC5CC5)ncc4F)n3c2)c1 for me?
**Result** active

**Query** Can you look up the reported call for CCN(CC)c1ccc(/C=C/C(=O)c2ccc(Nc3nc(Nc4ccccc4)nc(Nc4ccccc4)n3)cc2)cc1 for me?
**Result** inactive

**Query** Can you look up the reported call for O=C(Nc1nn(-c2ccc(Cl)cc2Cl)nc1-c1ccccc1)c1ccccc1 for me?
**Result** inactive

**Query** Can you look up the reported call for CN1C(=O)/C(=C/c2ccc(C(=O)Nc3ncc(Cc4ccc(Cl)cc4)s3)cc2)SC1=S for me?
**Result** inactive

**Query** Can you look up the reported call for O=C(Cn1c(=O)sc2nc3ccccc3nc21)Nc1ncc(Cc2cccc(Cl)c2Cl)s1 for me?
**Result** inactive

**Query** Can you look up the reported call for Fc1cc(F)cc(C(c2c[nH]c3ccccc23)c2c[nH]c3ccccc23)c1 for me?
**Result** inactive

* * *

# Tested on: NCI-H460 lung
# measurementNotes: NCI-60 one-dose screen, 48 h
# setupConditions: 10 µM unless noted
Compounds without any hit were thinned out: in the full panel of roughly 83,000, 20% have a hit. The source made the active and inactive calls. How the source made its calls: active means growth percent below 10; inactive means the rest.
Pick one and only one: active, inactive

Worked examples, 3 compounds total:
compound	assaySystem	answerLabel
CC1(C)CC[C@]2(c3nnc(-c4ccncc4)o3)CC[C@H]3C(=CC[C@H]4[C@@]3(C)CC[C@H]3C(C)(C)C(=O)CC[C@]43C)[C@@H]2C1	NCI-H460 lung	inactive
C1=C(N2CCCC2)CCC1	NCI-H460 lung	inactive
CN1C(=O)/C(=C/c2ccc(C(=O)Nc3ncc(Cc4ccc(Cl)cc4)s3)cc2)SC1=S	NCI-H460 lung	inactive

**Query** Can you look up the reported call for O=C1C(Cl)=C(Oc2ccccc2)C(=O)c2ccccc21 for me?
**Result** inactive

**Query** Can you look up the reported call for COc1cc2oc(-c3cccc(NC(=O)c4cccc(Br)c4)c3)cc(=O)c2c(OC)c1OC for me?
**Result** inactive

**Query** Can you look up the reported call for N#Cc1nc(-c2ccccc2)oc1S(=O)(=O)N1CCOCC1 for me?
**Result** inactive

**Query** Can you look up the reported call for CCOC(=O)c1cc(C(=O)c2cc(OC)c(OC)c(OC)c2)n2ccc(-c3ccncc3)cc12 for me?
**Result** inactive

**Query** Can you look up the reported call for CNC(=O)c1c(NC(=O)c2ccc(C(F)(F)F)cc2)sc2c1CCC(=O)C2 for me?
**Result** active

**Query** Can you look up the reported call for Cn1c(-c2ccc(Br)cc2)c(O)c(=O)c2c(F)cccc21 for me?
**Result** inactive

**Query** Can you look up the reported call for c1ccc(C2=NN[C@H](c3cn(-c4ccccc4)nc3-c3ccccc3)C2)cc1 for me?
**Result** inactive

**Query** Can you look up the reported call for CCC(=C(c1ccc(OCCN2CCCC2)cc1)c1ccc(OCCN2CCCC2)cc1)c1ccc(Cl)cc1 for me?
**Result** active

**Query** Can you look up the reported call for COC(=O)c1cc(-c2ccc(S(C)(=O)=O)cc2)[nH]c1N/N=C/c1c(Cl)cccc1Cl for me?
**Result** active

**Query** Can you look up the reported call for CCc1ccc(C(=O)/C=C/C23c4ccccc4C(c4ccccc42)C2C(=O)NC(=O)C23)cc1 (centres undefined) for me?
**Result** active

**Query** Can you look up the reported call for OCCCC1CCN(C(Cc2ccccc2)c2ccccc2)CC1 (centres undefined) for me?
**Result** inactive

**Query** Can you look up the reported call for Cc1cc2c([nH]1)CSc1cc(S(=O)(=O)c3ccccc3)c(=O)[nH]c1-2 for me?
**Result** active

**Query** Can you look up the reported call for N#C/C(=C\c1ccc(-c2ccc(Cl)cc2)o1)C(=O)Nc1ncc(Cc2ccc(Cl)cc2)s1 for me?
**Result** active

**Query** Can you look up the reported call for COC(=O)c1cc(-c2ccc(OC)cc2)[nH]c1N/N=C/c1c(Cl)cccc1Cl for me?
**Result** active

**Query** Can you look up the reported call for CC(C)=CCC[C@](C)(O)[C@H]1CC[C@]2(C)[C@@H]1CC[C@@H]1[C@@]3(C)Cc4nccnc4C(C)(C)[C@@H]3CC[C@]12C for me?
**Result** inactive

**Query** Can you look up the reported call for S=C(Nc1ccc(-c2nc(N3CCOCC3)c3cccn3n2)cc1)Nc1cccnc1 for me?
**Result** inactive

**Query** Can you look up the reported call for N#Cc1cccc(NC(=O)c2oc3ccccc3c2-c2cnn(-c3ccccc3)c2)c1 for me?
**Result** inactive

**Query** Can you look up the reported call for O=CC1(C2(C=O)c3ccccc3-c3ccccc32)c2ccccc2-c2ccccc21 for me?
**Result** active

**Query** Can you look up the reported call for O=C(c1ccccc1)C1C(=O)N2C(=S)N(c3ccccc3)C(=O)C2C1c1ccc(Cl)cc1 (centres undefined) for me?
**Result** inactive

**Query** Can you look up the reported call for CN1CCN(C(=O)OCc2ccc3c(Cl)cc(Cl)c(O)c3n2)CC1 for me?
**Result** inactive

**Query** Can you look up the reported call for Cc1ccc(-c2cc(-c3ccc(Cl)cc3)nc(NC(=O)c3cccnc3)n2)cc1 for me?
**Result** inactive

**Query** Can you look up the reported call for Cc1ccc(/C=N/Nc2nc(Nc3ccccc3)nc(-n3nc(C)cc3C)n2)cc1 for me?
**Result** active

**Query** Can you look up the reported call for O=C1Nc2ccc(Br)cc2/C1=N/c1n[nH]c(=S)s1 for me?
**Result** inactive
